sequences and their reported PBM E-score
- study.system: Mot3 (UniProt P54785)
- Sequence: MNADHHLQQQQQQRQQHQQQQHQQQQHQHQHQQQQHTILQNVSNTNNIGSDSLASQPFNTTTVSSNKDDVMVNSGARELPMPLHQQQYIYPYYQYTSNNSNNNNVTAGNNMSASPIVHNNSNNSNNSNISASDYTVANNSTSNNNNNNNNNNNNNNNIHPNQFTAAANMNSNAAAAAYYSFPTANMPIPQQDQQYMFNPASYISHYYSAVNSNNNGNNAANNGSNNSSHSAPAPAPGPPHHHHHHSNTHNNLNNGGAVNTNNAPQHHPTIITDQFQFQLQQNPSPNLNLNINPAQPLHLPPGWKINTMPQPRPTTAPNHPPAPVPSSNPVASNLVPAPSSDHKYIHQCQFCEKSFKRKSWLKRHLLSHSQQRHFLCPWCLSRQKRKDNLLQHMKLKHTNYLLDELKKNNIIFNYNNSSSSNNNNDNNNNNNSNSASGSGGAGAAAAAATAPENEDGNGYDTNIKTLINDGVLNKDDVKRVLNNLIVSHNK
- assay.explanation: PBM E-score (8-mer binding enrichment) (E-score (-0.5 to 0.5)); higher = stronger / more preferred TF binding
- assay.conditions: protein concentration: 200 nM; construct: GST-full length
The full ranking holds about 33,000 sequences; the median of “E-score (-0.5 to 0.5)” is about -0.035, and the highest 2% start at about 0.34. The entries come from a sample that favours the highest values as a whole.
reported.property: PBM E-score

In [3]: df
Out[3]:
    macromolecule_sequence  endpoint_value
 0                AACCTGAG         -0.0479
 1                ATGGCATC          -0.162
 2                GCTACAGC          -0.167
 3                ACCGAGGA          -0.111
 4                GGACAGCA          -0.224
 5                CTAACCCA         -0.0185
 6                TAAATACA           0.366
 7                GGCGCCCC         -0.0368
 8                GGGCGTGA          -0.066
 9                GAAATACA           0.328
10                AGGAAACC            0.42
11                GACATACA           0.218
12                GGGAAACA          -0.036
13                AAGGTGTG         -0.0849
14                CGGAAACC          -0.352
15                AAGGCATT           0.362
16                AAGTTTTG           0.167

###

A collection of sequences and their measured PBM E-score
- study.system: Mot3 (UniProt P54785)
- Sequence: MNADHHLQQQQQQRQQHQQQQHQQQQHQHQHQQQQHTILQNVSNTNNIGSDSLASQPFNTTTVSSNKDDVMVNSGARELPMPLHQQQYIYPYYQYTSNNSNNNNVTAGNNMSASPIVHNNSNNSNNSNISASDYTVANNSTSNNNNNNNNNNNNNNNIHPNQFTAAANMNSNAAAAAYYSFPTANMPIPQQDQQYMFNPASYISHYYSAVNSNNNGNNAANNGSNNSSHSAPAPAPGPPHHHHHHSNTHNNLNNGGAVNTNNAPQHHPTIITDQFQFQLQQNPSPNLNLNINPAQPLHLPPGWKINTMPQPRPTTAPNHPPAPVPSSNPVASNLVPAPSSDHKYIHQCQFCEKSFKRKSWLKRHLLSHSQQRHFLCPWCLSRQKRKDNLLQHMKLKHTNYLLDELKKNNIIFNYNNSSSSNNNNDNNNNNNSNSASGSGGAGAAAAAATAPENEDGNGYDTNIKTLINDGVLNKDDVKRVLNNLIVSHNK
- assay.explanation: PBM E-score (8-mer binding enrichment) (E-score (-0.5 to 0.5)); higher = stronger / more preferred TF binding
- assay.conditions: protein concentration: 200 nM; construct: GST-full length
The full ranking holds about 33,000 sequences; the median of “E-score (-0.5 to 0.5)” is about -0.035, and the highest 2% start at about 0.34. Shown is part of a subset that was picked to be rich in the highest values.
reported.property: PBM E-score

In [3]: df
Out[3]:
    macromolecule_sequence  endpoint_value
 0                CTCTAACA          0.0488
 1                CAAAGGAC          -0.189
 2                AGTGCCGC          -0.373
 3                ATTTTCAA            0.12
 4                AGTGCCTC           0.405
 5                AGACTGTA          -0.109
 6                ATCTTAAG           -0.14
 7                AGTGCCGG          0.0259
 8                GAAAGGAA            0.29
 9                AAAAGGAT           0.157
10                AGGAGTAC           0.171
11                CGTGCCCC         0.00946
12                GGGGCAAC         -0.0256
